TARGET_OF_ASSAY: Human HER3, endogenous, on human cancer cell lines (SK-Br-3, MCF7, BT-474) (human, UniProt P21860 20-1342)
Sequence (P21860 20-1342): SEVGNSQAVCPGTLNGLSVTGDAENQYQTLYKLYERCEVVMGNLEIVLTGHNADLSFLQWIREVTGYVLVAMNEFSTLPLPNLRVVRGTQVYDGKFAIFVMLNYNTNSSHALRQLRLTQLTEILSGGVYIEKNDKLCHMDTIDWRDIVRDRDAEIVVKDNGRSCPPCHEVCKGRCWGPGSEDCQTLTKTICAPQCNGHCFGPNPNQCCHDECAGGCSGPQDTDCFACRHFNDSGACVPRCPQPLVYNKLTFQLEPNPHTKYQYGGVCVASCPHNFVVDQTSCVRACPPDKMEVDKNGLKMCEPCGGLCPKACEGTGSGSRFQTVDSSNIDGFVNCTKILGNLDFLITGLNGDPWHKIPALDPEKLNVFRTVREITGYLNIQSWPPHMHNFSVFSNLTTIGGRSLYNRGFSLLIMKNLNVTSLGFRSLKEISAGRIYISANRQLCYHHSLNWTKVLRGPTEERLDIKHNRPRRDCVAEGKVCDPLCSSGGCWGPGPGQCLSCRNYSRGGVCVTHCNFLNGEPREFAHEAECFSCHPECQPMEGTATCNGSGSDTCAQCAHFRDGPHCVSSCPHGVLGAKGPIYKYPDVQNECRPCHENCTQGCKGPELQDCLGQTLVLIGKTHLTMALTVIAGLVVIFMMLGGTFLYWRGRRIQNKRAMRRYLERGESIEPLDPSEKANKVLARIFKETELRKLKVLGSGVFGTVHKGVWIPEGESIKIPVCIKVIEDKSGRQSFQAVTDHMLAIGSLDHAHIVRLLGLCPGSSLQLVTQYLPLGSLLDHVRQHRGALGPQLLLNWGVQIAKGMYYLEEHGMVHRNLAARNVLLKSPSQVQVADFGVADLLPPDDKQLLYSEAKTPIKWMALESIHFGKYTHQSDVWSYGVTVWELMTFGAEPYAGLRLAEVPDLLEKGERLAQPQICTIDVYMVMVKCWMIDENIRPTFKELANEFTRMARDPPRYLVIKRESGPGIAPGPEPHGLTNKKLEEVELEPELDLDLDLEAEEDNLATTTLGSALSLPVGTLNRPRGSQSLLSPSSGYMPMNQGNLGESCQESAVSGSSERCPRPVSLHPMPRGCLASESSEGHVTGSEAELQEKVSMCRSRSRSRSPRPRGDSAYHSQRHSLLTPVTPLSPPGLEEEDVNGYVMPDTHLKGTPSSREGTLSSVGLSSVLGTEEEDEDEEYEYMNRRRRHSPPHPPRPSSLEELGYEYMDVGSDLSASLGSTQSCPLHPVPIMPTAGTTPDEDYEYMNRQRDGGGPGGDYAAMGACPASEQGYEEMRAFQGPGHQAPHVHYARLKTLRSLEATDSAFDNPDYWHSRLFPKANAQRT
ASSAY_PROTOCOL: cell-based or functional assay
OBSERVED_PROPERTY: SK-Br-3 proliferation IC50 (nM)
Unit nM implied. Number only.

Take a look at these entries with their results.
{"columns": ["BINDER", "SK-Br-3 proliferation IC50, nM"],
 "data": [
  ["MOR13761 (antibody, human IgG1, kappa, V domains shown, tested as IgG) VH: QVQLVQSGAEVKKPGESLKISCKGSGYSFTQTWVAWVRQMPGKGLEWMGIIYPGQSDTIYSPSFQGQVTISADKSISTAYLQWSSLKASDTAMYYCARVHIIQPPSAWSYNAMDVWGQGTLVTVSS VL: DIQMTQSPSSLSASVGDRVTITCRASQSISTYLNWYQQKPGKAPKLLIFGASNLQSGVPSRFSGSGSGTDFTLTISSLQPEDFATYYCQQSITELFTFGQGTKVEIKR", 0.134],
  ["MOR12924 (antibody, human IgG1, kappa, V domains shown) VH: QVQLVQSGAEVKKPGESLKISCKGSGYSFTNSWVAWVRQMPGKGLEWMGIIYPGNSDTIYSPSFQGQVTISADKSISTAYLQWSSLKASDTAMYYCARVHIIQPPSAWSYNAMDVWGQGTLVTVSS VL: DIQMTQSPSSLSASVGDRVTITCRASQSISTYLNWYQQKPGKAPKLLIFGASNLQSGVPSRFSGSGSGTDFTLTISSLQPEDFATYYCQQSVWEPATFGQGTKVEIKR", 0.533]
]}

// moving on: another record for SK-Br-3 proliferation IC50
For MOR13763 (antibody, human IgG1, kappa, V domains shown, tested as IgG) VH: QVQLVQSGAEVKKPGESLKISCKGSGYSFTSYWVAWVRQMPGKGLEWMGIIYPGQSDTIYSPSFQGQVTISADKSISTAYLQWSSLKASDTAMYYCARVHIIQPPSAWSYNAMDVWGQGTLVTVSS VL: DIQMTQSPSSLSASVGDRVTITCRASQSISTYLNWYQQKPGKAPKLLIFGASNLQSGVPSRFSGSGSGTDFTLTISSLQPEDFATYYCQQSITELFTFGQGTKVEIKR , what is its reported SK-Br-3 proliferation IC50?
0.326
